Biological target: phosphorylated ERBB2 (pERBB2) (Homo sapiens)
Construct: endogenous in cells
Assay: Detection of phosphorylated ERBB2 (pERBB2) by ELISA in BT-474 cells
Conditions: four hours incubation
Protocol: BT-474 cells were seeded into a 96-well at 2.0*10^4 cells/100 μl/well. Compounds were dissolved and serially diluted in DMSO. The compounds were then were added, mixed, and incubated for four hours at 37° C., 5% CO2. […] Optical density at 450 nm was read on an EnSpire plate reader (Perkin Elmer). The remaining kinase activity by calculated using the following formula: % Relative activity=100×(A450sample−A450LC)/(A450HC−A450LC). […]
Property: IC50 (nM)

[[record]]
molecule = "Cc1cc(Nc2ncnc3cnc(N4CC(C)/C(=C\\CN(C)C)C4=O)cc23)ccc1Oc1ccc2c(c1)nnn2C (single isomer, unassigned) [Example S86, Enantiomer #1]"
property = "IC50"
quantitative_result = 11.5


(I) [2H]C([2H])([2H])n1cnc2cc(Oc3ccc(Nc4ncnc5ccc(N6CC/C(=C\CN(C)C)C6=O)nc45)cc3C)ccc21
(II) Cc1cc(Nc2ncnc3ccc(N4CC(C)C(=CCN(C)C)C4=O)nc23)ccc1Oc1ccc2c(c1)nnn2C (single isomer, unassigned) [Example S126, Enantiomer #2]
For the pair I and II , which member has the lower IC50 number? Record your answer as the label of the chosen record.
I
(I: 15.4 nM, II: 401 nM)

---

Target: phosphorylated ERBB2 (pERBB2) (Homo sapiens)
Construct: endogenous in cells; host or cells: BT-474
Test: Detection of phosphorylated ERBB2 (pERBB2) by ELISA in BT-474 cells
Assay type: cell-based
Conditions: four hours incubation
pIC50: −log10 of the molar value.
Property: pIC50

Solved entries:
[[record]]
compound = "Cc1cc(Nc2ncnc3ccc(N4CC/C(=C/CN(C)C)C4=O)nc23)ccc1Oc1ccc2c(c1)ncn2C [Compound 83]"
property = "pIC50"
quantitative_result = 7.35

[[record]]
compound = "Cc1cc(Nc2ncnc3ccc(N4CC/C(=C\\[C@H]5CCCN5C)C4=O)nc23)ccc1Oc1ccn2ncnc2c1 [Compound 90]"
property = "pIC50"
quantitative_result = 7.77

[[record]]
compound = "C=C1CCN(c2ccc3ncnc(Nc4cc(C)c(Oc5ccn6ncnc6c5)cc4F)c3c2)C1=O [Compound 15]"
property = "pIC50"
quantitative_result = 8.09

[[record]]
compound = "C=C1CCN(c2ccc3ncnc(Nc4ccc(Oc5ccn6ncnc6c5)c(C)c4F)c3c2)C1=O [Compound 14]"
property = "pIC50"
quantitative_result = 7.57


(A) C=C1CCCN(c2ccc3ncnc(Nc4ccc(Oc5ccc6c(c5)ncn6C)c(C)c4)c3n2)C1=O [Compound 96]
(B) Cc1c(Oc2ccc3c(c2)ncn3C)ccc(Nc2ncnc3ccc(N4CC/C(=C\CN(C)C)C4=O)nc23)c1F [Compound 69]
Hi there! Just curious which has the higher pIC50 between A and B . Pick one; state its label.
A
(A: 7.64, B: 7.25)

(I) Cc1cc(Nc2ncnc3ccc(N4CC(C)/C(=C\CN(C)C)C4=O)nc23)ccc1Oc1ccc2c(c1)ncn2C (single isomer, unassigned; enantiomer 1) [Example S58, Enantiomer # 1]
(II) Cc1cc(Nc2ncnc3cnc(N4CC/C(=C\CN(C)C)C4=O)cc23)ccc1Oc1ccn2ncnc2c1 [Compound 74]
(III) C=C1CCN(c2nc3c(Nc4ccc(Oc5ccc6c(c5)ncn6C)c(C)c4)ncnc3s2)C1=O [Compound 84]
Reorder the items by pIC50, least to greatest. In plain terms: list the labels in the order you were asked to.
III, I, II
(III: 6.37, I: 7.53, II: 8.27)

(P) C=C1CCN(c2cc3c(Nc4ccc(Oc5ccc6c(c5)ncn6C)c(C)c4)ncnc3cn2)C1=O [Compound 39]
(Q) Cc1cc(Nc2ncnc3cnc(N4CC/C(=C\C5CN(C)C5)C4=O)cc23)c(F)cc1Oc1ccn2ncnc2c1 [Compound 138]
Between P and Q , which one shows the smaller pIC50 number? Give the chosen item's label as your response.
P
(P: 7.44, Q: 7.77)

---

Target: phosphorylated ERBB2 (pERBB2) (Homo sapiens, UniProt P04626)
Construct: endogenous in cells
Sequence (P04626 23-1255): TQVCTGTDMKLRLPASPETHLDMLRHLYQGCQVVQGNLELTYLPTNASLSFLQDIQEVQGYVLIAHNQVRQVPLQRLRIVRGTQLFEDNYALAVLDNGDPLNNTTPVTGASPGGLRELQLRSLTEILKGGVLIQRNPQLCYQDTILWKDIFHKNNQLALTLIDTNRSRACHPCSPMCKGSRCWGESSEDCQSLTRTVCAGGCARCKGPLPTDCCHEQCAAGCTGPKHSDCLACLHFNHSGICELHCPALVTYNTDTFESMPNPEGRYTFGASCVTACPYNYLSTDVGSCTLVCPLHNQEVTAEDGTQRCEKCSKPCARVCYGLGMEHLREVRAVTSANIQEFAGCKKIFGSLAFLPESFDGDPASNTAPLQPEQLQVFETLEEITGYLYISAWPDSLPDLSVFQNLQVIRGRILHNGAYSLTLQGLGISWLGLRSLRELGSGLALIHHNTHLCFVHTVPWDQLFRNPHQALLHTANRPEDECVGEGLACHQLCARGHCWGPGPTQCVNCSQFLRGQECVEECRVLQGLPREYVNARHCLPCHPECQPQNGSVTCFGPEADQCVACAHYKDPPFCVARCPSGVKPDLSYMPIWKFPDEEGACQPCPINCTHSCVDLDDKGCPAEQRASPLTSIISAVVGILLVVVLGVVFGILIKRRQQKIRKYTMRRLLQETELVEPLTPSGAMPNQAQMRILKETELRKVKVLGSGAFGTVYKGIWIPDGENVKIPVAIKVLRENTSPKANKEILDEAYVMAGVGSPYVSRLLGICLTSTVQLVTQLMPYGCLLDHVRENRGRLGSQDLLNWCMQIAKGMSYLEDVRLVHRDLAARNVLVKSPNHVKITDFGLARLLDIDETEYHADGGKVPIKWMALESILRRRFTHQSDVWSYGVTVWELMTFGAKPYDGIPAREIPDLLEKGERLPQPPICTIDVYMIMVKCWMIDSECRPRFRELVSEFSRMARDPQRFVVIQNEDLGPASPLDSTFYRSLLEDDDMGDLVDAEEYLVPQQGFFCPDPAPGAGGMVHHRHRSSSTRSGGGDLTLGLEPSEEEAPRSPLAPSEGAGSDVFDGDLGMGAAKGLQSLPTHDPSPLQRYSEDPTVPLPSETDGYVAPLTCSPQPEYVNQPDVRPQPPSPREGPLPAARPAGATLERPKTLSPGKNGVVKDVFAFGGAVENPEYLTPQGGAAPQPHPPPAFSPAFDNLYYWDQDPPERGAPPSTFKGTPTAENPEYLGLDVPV
Test: Detection of phosphorylated ERBB2 (pERBB2) by ELISA in BT-474 cells
Details: four hours incubation
pIC50: −log10 of the molar value.
Property: pIC50

[[record]]
compound = "[2H]C([2H])([2H])n1nnc2cc(Oc3ccc(Nc4ncnc5ccc(N6CC/C(=C\\CN(C)C)C6=O)nc45)cc3C)ccc21 [Compound 117]"
quantitative_result = 7.72


(a) C=C1C(=O)N(c2ccc3ncnc(Nc4ccc(Oc5ccn6ncnc6c5)c(C)c4)c3c2)CC1COCCN(C)C (single isomer, unassigned) [Example S111, Enantiomer #2]
(b) Cc1cc(Nc2ncnc3cnc(N4CC/C(=C\CN(C)C)C4=O)cc23)ccc1Oc1cccnc1 [Compound 80]
Form field 'greater pIC50' accepts a or b ; which applies? // respond with label for picked entry
a
(a: 7.74, b: 7.18)

---

Target: Ba/F3 ERBB2 A775_G776insYVMA (Homo sapiens, UniProt P04626, DUP772-775, cells depend on it)
Sequence (P04626 with tags, fused parts or gaps DUP772-775): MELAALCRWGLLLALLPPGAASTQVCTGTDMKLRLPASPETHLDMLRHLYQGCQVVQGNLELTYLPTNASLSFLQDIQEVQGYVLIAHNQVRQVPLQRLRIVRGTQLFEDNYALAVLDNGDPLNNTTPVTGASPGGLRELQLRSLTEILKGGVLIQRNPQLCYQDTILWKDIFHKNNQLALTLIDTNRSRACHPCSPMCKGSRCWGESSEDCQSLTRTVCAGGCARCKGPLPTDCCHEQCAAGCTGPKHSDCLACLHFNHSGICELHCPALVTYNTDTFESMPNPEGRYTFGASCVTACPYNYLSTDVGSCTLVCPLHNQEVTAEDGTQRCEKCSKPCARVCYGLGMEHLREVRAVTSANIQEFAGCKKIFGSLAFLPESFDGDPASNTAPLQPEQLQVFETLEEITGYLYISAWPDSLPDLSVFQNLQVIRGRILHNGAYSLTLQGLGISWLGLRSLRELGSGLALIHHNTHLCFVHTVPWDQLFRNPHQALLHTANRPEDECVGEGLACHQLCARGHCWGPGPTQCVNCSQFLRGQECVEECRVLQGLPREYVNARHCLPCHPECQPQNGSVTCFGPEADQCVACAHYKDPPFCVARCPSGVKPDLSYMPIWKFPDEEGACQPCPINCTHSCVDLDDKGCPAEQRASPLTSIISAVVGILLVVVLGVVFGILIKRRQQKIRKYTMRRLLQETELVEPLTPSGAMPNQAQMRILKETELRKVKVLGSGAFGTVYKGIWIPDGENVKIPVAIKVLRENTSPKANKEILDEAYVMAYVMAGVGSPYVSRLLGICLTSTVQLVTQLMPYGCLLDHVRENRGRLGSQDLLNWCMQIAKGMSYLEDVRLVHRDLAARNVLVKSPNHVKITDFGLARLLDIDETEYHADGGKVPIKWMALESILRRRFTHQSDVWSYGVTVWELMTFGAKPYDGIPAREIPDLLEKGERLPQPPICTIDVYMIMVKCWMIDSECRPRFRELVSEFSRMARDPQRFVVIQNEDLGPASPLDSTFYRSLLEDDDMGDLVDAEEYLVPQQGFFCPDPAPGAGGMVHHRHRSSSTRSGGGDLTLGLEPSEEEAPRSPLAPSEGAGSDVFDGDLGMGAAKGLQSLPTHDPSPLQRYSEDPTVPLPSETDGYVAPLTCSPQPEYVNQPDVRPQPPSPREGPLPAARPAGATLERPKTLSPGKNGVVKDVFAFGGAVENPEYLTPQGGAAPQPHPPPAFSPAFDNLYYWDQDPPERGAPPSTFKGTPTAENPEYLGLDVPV
Assay: Cell viability assay, Ba/F3 ERBB2 A775_G776insYVMA
Type: cell-based, mouse
Details: Ba/F3 ERBB2 YVMA cells, cell viability, 72 hours, CellTiter Glo; Table B5; read-out: Ba/F3 ERBB2 YVMA, IC50
Property: GI50 (nM)
Quick note: give the figure in nM, leave out the unit.

[[record]]
compound = "Cc1cc(Nc2ncnc3ccc(N4CC/C(=C\\CN(C)C)C4=O)nc23)ccc1Oc1ccc2c(c1)ncn2C"
reading_unit = "nM"
quantitative_result = 2

[[record]]
compound = "C=C1C(=O)N(c2cc3c(Nc4ccc(Oc5ccn6ncnc6c5)c(C)c4)ncnc3cn2)C[C@H]1C"
reading_unit = "nM"
quantitative_result = 134


Quick check: GI50 of Cc1cc(Nc2ncnc3ccc(N4CC/C(=C\CN(C)C)C4=O)nc23)ccc1Oc1ccc2scnc2c1 ?
1.82

Follow-up entry: C=C1C(=O)N(c2ccc3ncnc(Nc4ccc(Oc5ccc6c(c5)ncn6C)c(C)c4)c3c2)C2CC12 (single isomer, unassigned) [Example S33, Enantiomer # 1]
7.57

---

Target: Ba/F3 ERBB2 A775_G776insYVMA (Homo sapiens, UniProt P04626, DUP772-775, cells depend on it)
Experiment: Cell viability assay, Ba/F3 ERBB2 A775_G776insYVMA
Assay type: cell-based, mouse
Conditions: Ba/F3 ERBB2 YVMA cells, cell viability, 72 hours, CellTiter Glo; Table B5; read-out: Ba/F3 ERBB2 YVMA, IC50
Attribute: GI50

[[record]]
molecule = "CC1CN(c2cc3c(Nc4ccc(Oc5ccc6c(c5)nnn6C)cc4)ncnc3cn2)C(=O)/C1=C/CN(C)C (single isomer, unassigned) [Compound 136]"
result = "18 nM"

[[record]]
molecule = "CC1CN(c2cc3c(Nc4cc(F)c(Oc5ccc6c(c5)nnn6C)cc4F)ncnc3cn2)C(=O)/C1=C/CN(C)C (single isomer, unassigned) [Example S125, Enantiomer #1]"
result = "> 500 nM"


With those in mind, consider the next molecule.
What does the data say about its GI50? Entry: Cc1cc(Nc2ncnc3ccc(N4CC/C(=C\CCN5CCN(C)CC5)C4=O)cc23)ccc1Oc1ccn2ncnc2c1
> 500 nM

---

Target: Ba/F3 ERBB2 A775_G776insYVMA (Homo sapiens, UniProt P04626, DUP772-775, cells depend on it)
Test: Cell viability assay, Ba/F3 ERBB2 A775_G776insYVMA
Type: cell-based, mouse
Settings: Ba/F3 ERBB2 YVMA cells, cell viability, 72 hours, CellTiter Glo; Table B5; read-out: Ba/F3 ERBB2 YVMA, IC50
# GI50 values compiled below
Unit nM implied. Number only.

[[record]]
molecule = "Cc1cc(Nc2ncnc3cnc(N4CC/C(=C\\C5CN(C)C5)C4=O)cc23)c(F)cc1Oc1ccn2ncnc2c1"
property = "GI50"
reading_unit = "nM"
quantitative_result = 99.6

[[record]]
molecule = "CC1CN(c2cc3c(Nc4cc(F)c(Oc5ccc6c(c5)nnn6C)cc4F)ncnc3cn2)C(=O)/C1=C/CN(C)C (single isomer, unassigned) [Example S125, Enantiomer #2]"
property = "GI50"
reading_unit = "nM"
quantitative_result = 27

[[record]]
molecule = "Cc1cc(Nc2ncnc3cnc(N4CC(C)/C(=C\\CN(C)C)C4=O)cc23)ccc1Oc1ccc2c(c1)nnn2C (single isomer, unassigned) [Example S86, Enantiomer #2]"
property = "GI50"
reading_unit = "nM"
quantitative_result = 240

[[record]]
molecule = "C=C1C(=O)N(c2ccc3ncnc(Nc4ccc(Oc5ccn6ncnc6c5)c(C)c4)c3c2)CC1CO (centres unmarked)"
property = "GI50"
reading_unit = "nM"
quantitative_result = 31.5

[[record]]
molecule = "Cc1cc(Nc2ncnc3ccc(N4CC/C(=C\\CN(C)C)C4=O)nc23)ccc1Oc1ccc2[nH]cnc2c1"
property = "GI50"
reading_unit = "nM"
quantitative_result = 1.55

[[record]]
molecule = "C=C1CCN(c2ccc3ncnc(Nc4ccc(Oc5ccc6cncnc6c5)c(C)c4)c3c2)C1=O"
property = "GI50"
reading_unit = "nM"
quantitative_result = 46.4


Any idea what GI50 was measured for CN(C)C/C=C1\CCN(c2cc3c(Nc4cc(Cl)c(Oc5ccn6ncnc6c5)cc4F)ncnc3cn2)C1=O ?
16.9

Same thing, different molecule: C=C1C(=O)N(c2ccc3ncnc(Nc4ccc(Oc5ccc6c(c5)ncn6C)c(C)c4)c3c2)C[C@H]1C
17.4

Next up: Cc1cc(Nc2ncnc3ccc(N4CC/C(=C\CN(C)C)C4=O)nc23)ccc1Oc1ccc2nccnc2c1
7.15

Try Cc1ccc(Oc2ccc(Nc3ncnc4ccc(N5CC/C(=C\CN(C)C)C5=O)nc34)cc2C)cn1 next.
0.999

Consider next the molecule C=C1C(=O)N(c2cc3c(Nc4ccc(Oc5ccn6ncnc6c5)c(C)c4)ncnc3cn2)C2CC12 (single isomer, unassigned; enantiomer 2) [Example S40, Enantiomer # 2] in the same way.
68.1

Ok, now Cc1cc(Nc2ncnc3ccc(N4CC/C(=C\CN(C)C)C4=O)nc23)c(F)cc1Oc1ccc2c(c1)ncn2C
4.29

Request: CN(C)C/C=C1\CCN(c2cc3c(Nc4ccc(Oc5cccnc5)c(F)c4)ncnc3cn2)C1=O
56

Check Cc1cc(Nc2ncnc3ccc(N4CC/C(=C\CN(C)C)C4=O)nc23)ccc1Oc1ccn2ncnc2c1 too.
4.08

Another: Cc1cc(Nc2ncnc3ccc(N4CC/C(=C\CN(C)C)C4=O)cc23)ccc1Oc1ccc2c(c1)ncn2C
15.8

Same for [2H]C([2H])([2H])n1nnc2cc(Oc3ccc(Nc4ncnc5ccc(N6CC/C(=C\CN(C)C)C6=O)nc45)cc3C)ccc21
2

Next molecule up: C=C1C(=O)N(c2ccc3ncnc(Nc4ccc(Oc5ccc6c(c5)ncn6C)c(C)c4)c3c2)C2CC12 (single isomer, unassigned) [Example S33, Enantiomer # 2]
7.6

Quick one: CN(C)C/C=C1\CCN(c2ccc3ncnc(Nc4ccc(Oc5ccc6c(c5)ncn6C)cc4F)c3n2)C1=O
6.64

And what about the molecule Cc1cc(Nc2ncnc3cnc(N4CC(C)/C(=C\CN(C)C)C4=O)cc23)c(F)cc1Oc1ccc2c(c1)nnn2C (single isomer, unassigned) [Example S115, Enantiomer #2] ?
286

CN(C)C/C=C1\CCN(c2cc3c(Nc4ccc(Oc5ccc6c(c5)ncn6C)c(F)c4)ncnc3cn2)C1=O ?
7.9

Also Cc1cc(Nc2ncnc3ccc(N4CC/C(=C\CCN(C)C)C4=O)cc23)ccc1Oc1ccn2ncnc2c1 ?
8.61

Then Cc1cc(Nc2ncnc3cnc(N4CC/C(=C\CN(C)C)C4=O)cc23)ccc1Oc1ccc2c(c1)nnn2C ?
4.32

Record: C=C1CCN(c2ccc3ncnc(Nc4ccc(Oc5ccc6c(c5)ncn6C)c(C)c4)c3n2)C1=O
23

Ok, now Cc1cc(Nc2ncnc3ccc(N4CC(C)C(=CCN(C)C)C4=O)nc23)ccc1Oc1ccc2c(c1)nnn2C (single isomer, unassigned) [Example S126, Enantiomer #2]
205
